- TARGET_UNDER_TEST: Voltage-gated potassium channel subunit beta-2 (Rattus norvegicus) (UniProt P62483)
- Sequence (P62483 whole entry, looked up): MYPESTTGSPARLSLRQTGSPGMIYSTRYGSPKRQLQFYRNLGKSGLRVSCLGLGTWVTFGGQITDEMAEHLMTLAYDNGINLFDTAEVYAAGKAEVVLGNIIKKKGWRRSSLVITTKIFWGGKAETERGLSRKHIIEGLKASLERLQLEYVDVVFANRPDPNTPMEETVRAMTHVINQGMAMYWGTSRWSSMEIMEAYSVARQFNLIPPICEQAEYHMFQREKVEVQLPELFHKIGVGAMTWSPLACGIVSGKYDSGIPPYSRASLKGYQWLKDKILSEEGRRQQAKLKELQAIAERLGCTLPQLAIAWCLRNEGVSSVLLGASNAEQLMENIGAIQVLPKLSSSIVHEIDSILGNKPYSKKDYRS
- PROTOCOL: enhancers of rat Kvbeta2 NADPH turnover – biochemical, NADPH fluorescence, primary screen (AID 623);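 further: fluorescence intensity change per second fitted from 20 to 320 s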
- EXPERIMENTAL_CONTEXT: Recombinant KvBeta, NADPH fluorescence decrease slope, 10 min; at 10 µM; active compounds read low
The source made the active and inactive calls.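 How the source made its calls: active means NADPH fluorescence slope more negative than the mean of all samples by about 3 SD, 99.7% confidence; inactive means the rest.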
MEASURE: NADPH fluorescence slope

Example compounds with recorded NADPH fluorescence slope:
>  <COMPOUND_STRUCTURE_STRING>
Cn1c(=O)n(C)c2cc(CNc3ccc(N4CCOCC4)c(C(=O)O)c3)ccc21

>  <TARGET_UNDER_TEST>
Voltage-gated potassium channel subunit beta-2 (Rattus norvegicus) (UniProt P62483)

>  <NADPH fluorescence slope>
0.00012 (inactive)

$$$$
>  <COMPOUND_STRUCTURE_STRING>
Cn1c(=O)cc(SCC(=O)N2CCOCC2)c2ccc(Cl)cc21

>  <TARGET_UNDER_TEST>
Voltage-gated potassium channel subunit beta-2 (Rattus norvegicus) (UniProt P62483)

>  <NADPH fluorescence slope>
-5.8e-05 (inactive)

$$$$
>  <COMPOUND_STRUCTURE_STRING>
CC(=O)Nc1ccn(-c2ccccc2)n1

>  <TARGET_UNDER_TEST>
Voltage-gated potassium channel subunit beta-2 (Rattus norvegicus) (UniProt P62483)

>  <NADPH fluorescence slope>
-9.6e-06 (inactive)

$$$$

Query: Item: c1c2c(cc3sc(N4CCCCC4)nc13)OCCO2 Test system: Voltage-gated potassium channel subunit beta-2 (Rattus norvegicus) (UniProt P62483) Read-out: NADPH fluorescence slope Value: ?
Reply: -9.8e-06 (inactive)

Query: Moving on to CCCn1c(NCc2cc(C)ccc2O)nc2ccccc21
Reply: 6.3e-06 (inactive)

Query: Same read-out for O=C(O)c1cc(/C=N\O)ccc1OCc1ccccc1 ?
Reply: -1.3e-05 (inactive)

Query: Try the compound N#C/C(C(=O)N1CCOCC1)=C1/SC=C(c2ccccc2)N1c1ccccc1
Reply: -3e-05 (inactive)

Query: Entry CN(C)S(=O)(=O)n1cnc(-c2ccccc2)c1-c1ccccc1 please
Reply: -9.7e-06 (inactive)

Query: How about CCOc1ncccc1C(=O)OCC(=O)Nc1ncc(C(F)(F)F)cc1Cl ?
Reply: 2.6e-05 (inactive)

Query: And COc1ccc(-n2c(SCC(=O)Nc3ccc(C(=O)O)cc3)nnc2-c2cccs2)cc1 ?
Reply: -0.000238 (inactive)

Query: Entry to check: CCCCCc1c(O)c2ccccc2[nH]c1=O
Reply: -9.6e-05 (inactive)
